For reference, IC50 measured on JAK2 (h) (Homo sapiens):
Assay Metric: IC50 (nM)

Mol | Tested On | IC50 [nM]
COC(=O)Cc1nc2cc(Nc3ncc(Cl)c(NC4CCN(c5ccc(C#N)nn5)CC4)n3)ccn2n1 | JAK2 (h) (Homo sapiens) | 27

P: Cn1cnc2cc(Nc3ncc(Cl)c(NC4CCN(c5ccc(C#N)cn5)CC4)n3)ccc21
Q: CN(C)C(=O)c1nc2cc(Nc3ncc(Cl)c(NC4CCN(c5ccc(C#N)nn5)CC4)n3)ccn2n1
Returns: the label, P or Q , whose recorded IC50 is the lower number. Selection: enter the item's label.
P

----------
# Assay: Pharmacokinetics after intravenous and oral administration in rats
# Assay type: in vivo
# Condition Description: iv dosing, dose 1 mg/kg (Ex. 9: 0.6, Ex. 18: 0.5, Ex. 50: 0.96 mg/kg)
Assay Metric: Clearance (CL) after iv dosing (mL/min/kg)

Compound | Result Unit | Clearance (CL) after iv dosing
Cc1c(Nc2ncc(Cl)c(NC3CCN(c4ccc(C#N)nn4)CC3)n2)ccn2c(C)cnc12 | mL/min/kg | 22.3
Cc1nc2cc(Nc3ncc(Cl)c(NC4CCN(c5ccc(C#N)cn5)CC4)n3)ccc2n1C | mL/min/kg | 11.2
CC(C)(O)c1cnc2cc(Nc3ncc(Cl)c(NC4CCN(c5ccc(C#N)cn5)CC4)n3)ccn12 | mL/min/kg | 15
CC(C)(O)c1nc2cc(Nc3ncc(Cl)c(NC4CCN(c5ccc(C#N)cc5)CC4)n3)ccn2n1 | mL/min/kg | 162

a: CC(C)(O)c1cn2ccc(Nc3ncc(Cl)c(NC4CCN(c5ccc(C#N)cn5)CC4)n3)cc2n1
b: CCC1CN(c2ccc(C#N)cn2)CCC1Nc1nc(Nc2ccn3ccnc3c2)ncc1Cl (centres unmarked)
Which has the higher Clearance (CL) after iv dosing, a or b ? Selection: enter the item's label.
a
(a: 19.3 mL/min/kg, b: 6.33 mL/min/kg)

----------
# Tested On: Aurora-A (h) (Homo sapiens)
# Construct: purchased Millipore UK Ltd (assays performed there as a service)
# Sequence (O14965 1-403): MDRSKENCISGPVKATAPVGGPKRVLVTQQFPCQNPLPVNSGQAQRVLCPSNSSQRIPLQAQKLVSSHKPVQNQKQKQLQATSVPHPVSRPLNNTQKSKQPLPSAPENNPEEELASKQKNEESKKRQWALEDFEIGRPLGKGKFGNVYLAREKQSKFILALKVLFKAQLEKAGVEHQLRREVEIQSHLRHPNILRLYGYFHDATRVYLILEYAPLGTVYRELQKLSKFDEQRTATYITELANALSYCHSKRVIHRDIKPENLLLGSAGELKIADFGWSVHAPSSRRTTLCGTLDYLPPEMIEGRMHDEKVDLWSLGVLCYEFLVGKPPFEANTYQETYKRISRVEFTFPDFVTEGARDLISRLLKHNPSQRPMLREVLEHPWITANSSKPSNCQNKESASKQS
# Assay: Aurora-A (h) kinase assay
# Type: biochemical
# Condition Description: [γ-33P-ATP] 10 μM or KM values; 40 minutes at room temperature
Assay Metric: IC50 (nM)

Compound | Assay Metric | Result Unit | Measured
N#Cc1ccc(N2CCC(Nc3nc(Nc4ccc5c(c4)nnn5CC4CC4)ncc3Cl)CC2)nc1 [Example 60] | IC50 | nM | 216

A: CC(C)(O)Cc1cn2ccc(Nc3ncc(Cl)c(NC4CCN(c5ccc(C#N)nn5)CC4)n3)cc2n1 [Example 38]
B: Cn1cnc2cc(Nc3ncc(Cl)c(NC4CCN(c5ccc(C#N)cn5)CC4)n3)ccc21 [Example 46]
Returns: the label, A or B , whose recorded IC50 is the lower number. Selection: enter the item's label.
B
(B: 187 nM, A: 440 nM)

----------
# Assay: Compound stability in human liver microsomes
# Assay type: in vitro ADME
# Condition Description: liver microsomes, pH 7.4; in vivo CLint extrapolated from human liver microsome incubation
Assay Metric: CLint scaled at 5 μM (mL/min/kg)

// solved cases for CLint scaled at 5 μM follow
Molecule | Result Unit | Measured
CC(C)(O)Cc1cn2cc(Nc3ncc(Cl)c(NC4CCN(c5ccc(C#N)cn5)CC4)n3)ccc2n1 | mL/min/kg | 41.3
CC(C)(O)c1nc2cc(Nc3ncc(Cl)c(NC4CCN(c5ccc(C#N)nn5)CC4F)n3)ccn2n1 (centres unmarked) | mL/min/kg | 0.4
CC(C)(O)c1nnc2cc(Nc3ncc(Cl)c(NC4CCN(c5ccc(C#N)cn5)CC4)n3)ccn12 | mL/min/kg | 4.8
Cc1nnc2cc(Nc3ncc(Cl)c(NC4CCN(c5ccc(C#N)nn5)CC4)n3)ccn12 | mL/min/kg | 11.3
CCC1CN(c2ccc(C#N)cn2)CCC1Nc1nc(Nc2ccn3c(C)nnc3c2)ncc1Cl (centres unmarked) | mL/min/kg | 39.5

I: N#Cc1ccc(N2CCC(Nc3nc(Nc4ccn5c(C(F)F)nnc5c4)ncc3Cl)CC2)nc1
II: Cn1cnc2cc(Nc3ncc(Cl)c(NC4CCN(c5ccc(C#N)cn5)CC4)n3)ccc21
Returns: the label, I or II , whose recorded CLint scaled at 5 μM is the lower number. Selection: enter the item's label.
I

a: N#Cc1ccc(N2CCC(Nc3nc(Nc4ccn5ccnc5c4)ncc3Cl)CC2)nn1
b: CC(O)Cn1cnc2cc(Nc3ncc(Cl)c(NC4CCN(c5ccc(C#N)cn5)CC4)n3)cnc21 (centres unmarked)
c: CC(C)(F)c1nc2cc(Nc3ncc(Cl)c(NC4CCN(c5ccc(C#N)cn5)CC4)n3)ccn2n1
d: Cc1cn2c(C)cnc2cc1Nc1ncc(Cl)c(NC2CCN(c3ccc(C#N)nn3)CC2)n1
e: CC(C)(O)Cc1nc2cc(Nc3ncc(Cl)c(NC4CCN(c5ccc(C#N)nn5)CC4)n3)ccn2n1
Sort the 5 molecules by CLint scaled at 5 μM; largest first, smallest last. // ordering of labels required in reply
a, b, c, e, d
(a: 78.1 mL/min/kg, b: 36.4 mL/min/kg, c: 25.1 mL/min/kg, e: 6.8 mL/min/kg, d: 4.5 mL/min/kg)

----------
# Assay: Pharmacokinetics after intravenous and oral administration in rats
# Assay type: in vivo
# Condition Description: rat, plasma, iv dosing, dose 1 mg/kg (Ex. 9: 0.6, Ex. 18: 0.5, Ex. 50: 0.96 mg/kg), read-out: Vss
Assay Metric: Vd (L/kg)

// solved cases for Vd follow
Compound | Vd (L/kg)
Cc1nc2cc(Nc3ncc(Cl)c(NC4CCN(c5ccc(C#N)nn5)CC4)n3)ccn2n1 | 0.53
Cc1nc2cc(Nc3ncc(Cl)c(NC4CCN(c5ccc(C#N)cn5)CC4)n3)ccn2n1 | 0.96

I: CN(C)C(=O)c1nc2cc(Nc3ncc(Cl)c(NC4CCN(c5ccc(C#N)cn5)CC4)n3)ccn2n1
II: CC(C)(O)Cc1cn2cc(Nc3ncc(Cl)c(NC4CCN(c5ccc(C#N)cn5)CC4)n3)ccc2n1
III: Cc1c(Nc2ncc(Cl)c(NC3CCN(c4ccc(C#N)nn4)CC3)n2)ccn2c(C)cnc12
Sort the 3 compounds by Vd; largest first, smallest last. // ordering of labels required in reply
II, III, I
(II: 1.8 L/kg, III: 1.16 L/kg, I: 0.65 L/kg)

----------
Form field: thickness Inhibition ratio (one value per entry).
# System: PMA-induced increase in mouse ear thickness and weight
# Assay: Topical PMA-induced acute atopic dermatitis in ICR mice
# Assay type: in vivo
# Condition Description: ICR female mice; 0.3 mg/ear/bid topical; 6 hours after PMA
Report the figure in % without appending any unit label.

Mol | thickness Inhibition ratio / %
CC(C)(O)Cc1cn2ccc(Nc3ncc(Cl)c(NC4CCN(c5ccc(C#N)cn5)CC4)n3)cc2n1 | 77.86
Cn1cnc2cc(Nc3ncc(Cl)c(NC4CCN(c5ccc(C#N)nn5)CC4)n3)ccc21 | 46.89

Which thickness Inhibition ratio value is on record for CCCn1nnc2cc(Nc3ncc(Cl)c(NC4CCN(c5ccc(C#N)nn5)CC4)n3)ccc21 ?
38.95

Which thickness Inhibition ratio value is on record for N#Cc1ccc(N2CCC(Nc3nc(Nc4cnc5c(c4)ncn5CCO)ncc3Cl)CC2)nc1 ?
60.03

Which thickness Inhibition ratio value is on record for CC(C)(O)c1cnc2cc(Nc3ncc(Cl)c(NC4CCN(c5ccc(C#N)cn5)CC4)n3)ccn12 ?
86.6

----------
# Assay: Pharmacokinetics after intravenous and oral administration in rats
# Assay type: in vivo
# Condition Description: rat, plasma, iv dosing, dose 1 mg/kg (Ex. 9: 0.6, Ex. 18: 0.5, Ex. 50: 0.96 mg/kg)
Assay Metric: AUC(0-t) (ng·h/mL)

// solved cases for AUC(0-t) follow
Molecule | Assay Metric | Measured
Cc1cn2ncc(Nc3ncc(Cl)c(NC4CCN(c5ccc(C#N)cn5)CC4)n3)cc2n1 | AUC(0-t) | 1460
CC(C)(O)c1nc2cc(Nc3ncc(Cl)c(NC4CCN(c5ccc(C#N)cc5)CC4)n3)ccn2n1 | AUC(0-t) | 1710
CC(C)(O)Cc1nc2cc(Nc3ncc(Cl)c(NC4CCN(c5ccc(C#N)cn5)CC4)n3)ccn2n1 | AUC(0-t) | 1490
N#Cc1ccc(N2CCC(Nc3nc(Nc4ccn5c(C(F)F)nnc5c4)ncc3Cl)CC2)nc1 | AUC(0-t) | 5130
N#Cc1ccc(N2CCC(Nc3nc(Nc4ccn5ccnc5c4)ncc3Cl)CC2)nn1 | AUC(0-t) | 909
Cc1nc2cc(Nc3ncc(Cl)c(NC4CCN(c5ccc(C#N)cn5)CC4)n3)ccn2n1 | AUC(0-t) | 2020
CC(O)Cn1ccc2cc(Nc3ncc(Cl)c(NC4CCN(c5ccc(C#N)cn5)CC4)n3)cnc21 (stereo not shown) | AUC(0-t) | 714
N#Cc1ccc(N2CCC(Nc3nc(Nc4cnn5ccnc5c4)ncc3Cl)CC2)nc1 | AUC(0-t) | 638
Cn1nnc2cc(Nc3ncc(Cl)c(NC4CCN(c5ccc(C#N)nn5)CC4)n3)ccc21 | AUC(0-t) | 1490
CC(C)(O)Cc1nc2cc(Nc3ncc(Cl)c(NC4CCN(c5ccc(C#N)nn5)CC4)n3)ccn2n1 | AUC(0-t) | 1860

P: CCC1CN(c2ccc(C#N)cn2)CCC1Nc1nc(Nc2ccn3cnnc3c2)ncc1Cl (stereo not shown)
Q: Cn1cnc2cc(Nc3ncc(Cl)c(NC4CCN(c5ccc(C#N)nn5)CC4)n3)ccc21
Which has the higher AUC(0-t), P or Q ? Selection: enter the item's label.
P
(P: 2340 ng·h/mL, Q: 1210 ng·h/mL)
